measure: melting point (°C)

A selection of reference data follows.
CCN(CC)c1nc(-c2ccc(C#N)cc2)nc2c1CCC2 [Example 71] : 130
CCN(CC)c1nc(-c2ccc(Cl)cc2)nc2c1CCC2.Cl [Example 26] : 185
N#Cc1ccc(-c2nc3c(c(N4CCOCC4)n2)CCC3)cc1 [Example 73] : 247

A = Cc1ccc(-c2nc3c(c(NCCO)n2)CCC3)cc1 [Example 39]
B = CCCCNc1nc(-c2ccc(OC)cc2)nc2c1CCC2 [Example 55]
Problem: Select the item with the higher value of melting point from the options A and B listed. // return label of chosen record
Result: A
(A: 191 °C, B: 119 °C)

---

measure: melting point (°C)

OCCNc1nc(-c2cccc(Cl)c2)nc2c1CCC2 [Example 21] : 150

A = Cc1ccc(-c2nc3c(c(N[C@H]4CC[C@H](O)CC4)n2)CCC3)cc1 [Example 43]
B = COc1ccc(-c2nc3c(c(NC4CCCCC4)n2)CCC3)cc1OC [Example 64]
C = CCCCNc1nc(-c2ccc(Cl)cc2)nc2c1CCC2 [Example 30]
Problem: Hey, can you sort those molecules up there by melting point, smallest first? Give your ranking as a list of the labels in the requested order.
Result: B, C, A

---

measure: melting point (°C)

N#Cc1ccc(-c2nc3c(c(NCc4ccccc4)n2)CCC3)cc1 [Example 70] : 168
COc1cccc(CCNc2nc(-c3cccc(Cl)c3)nc3c2CCC3)c1.Cl : 192
O[C@H]1CC[C@H](Nc2nc(-c3ccc(Cl)cc3)nc3c2CCC3)CC1 [Example 34] : 216
COc1ccc(-c2nc3c(c(N4CCCCCC4)n2)CCC3)cc1 [Example 60] : 99

1 = CCCCNc1nc(-c2cc(Cl)cc(Cl)c2)nc2c1CCC2 [Example 49]
2 = Clc1cccc(-c2nc3c(c(NCc4cccnc4)n2)CCC3)c1 [Example 22]
Problem: Select the item with the higher value of melting point from the options 1 and 2 listed. // return label of chosen record
Result: 2
(2: 185 °C, 1: 93 °C)

a = COc1ccc(-c2nc3c(c(NC4CCCC4)n2)CCC3)cc1OC [Example 63]
b = COCCNc1nc(-c2ccc(Cl)cc2)nc2c1CCC2.Cl
Problem: Given the listed items, does a or b have the lesser reported melting point? // return label of chosen record
Result: a
(a: 138 °C, b: 208 °C)

1 = COCCCNc1nc(-c2ccc(C#N)cc2)nc2c1CCC2 [Example 69]
2 = Cl.Cl.Clc1ccc(-c2nc3c(c(N(Cc4ccccc4)C4CCNCC4)n2)CCC3)cc1
3 = CCCN(CCC)c1nc(-c2ccc(OC)cc2)nc2c1CCC2 [Example 59]
Problem: Hey, can you sort those molecules up there by melting point, smallest first? Give your ranking as a list of the labels in the requested order.
Result: 3, 1, 2
(3: 74 °C, 1: 130 °C, 2: 275 °C)

P = CCN(CC)c1nc(-c2cccc(Cl)c2)nc2c1CCC2.Cl [Example 25]
Q = CC(C)CNc1nc(-c2ccc(Cl)cc2)nc2c1CCC2 [Example 29]
Problem: Given the listed items, does P or Q have the lesser reported melting point? // return label of chosen record
Result: Q
(Q: 121 °C, P: 185 °C)

---

system.under.test: soluble guanylate cyclase (sGC) (Bos taurus, UniProt P16068+P19687)
Construct: The sGC employed had been isolated from bovine lung; from tissue; host or cells: bovine lung
Sequence (P19687 whole entry): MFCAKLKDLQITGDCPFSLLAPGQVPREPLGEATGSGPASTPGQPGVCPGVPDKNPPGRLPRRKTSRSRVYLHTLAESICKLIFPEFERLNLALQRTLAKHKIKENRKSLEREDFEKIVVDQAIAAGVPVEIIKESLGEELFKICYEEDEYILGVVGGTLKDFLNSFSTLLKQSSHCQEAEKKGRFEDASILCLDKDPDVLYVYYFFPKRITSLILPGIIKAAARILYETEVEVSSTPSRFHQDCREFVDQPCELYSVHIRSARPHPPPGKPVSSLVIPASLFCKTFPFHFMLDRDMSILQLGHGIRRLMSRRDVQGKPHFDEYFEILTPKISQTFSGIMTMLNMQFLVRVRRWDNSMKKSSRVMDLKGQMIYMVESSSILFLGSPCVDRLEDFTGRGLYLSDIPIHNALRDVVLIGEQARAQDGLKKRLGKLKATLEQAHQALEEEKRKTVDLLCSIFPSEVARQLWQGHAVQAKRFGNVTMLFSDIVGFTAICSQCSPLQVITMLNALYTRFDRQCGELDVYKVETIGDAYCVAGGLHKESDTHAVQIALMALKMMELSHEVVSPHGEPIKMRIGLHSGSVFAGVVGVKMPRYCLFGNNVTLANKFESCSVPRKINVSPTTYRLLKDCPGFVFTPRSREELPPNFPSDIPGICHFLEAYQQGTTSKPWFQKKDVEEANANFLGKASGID
Sequence (P16068 whole entry): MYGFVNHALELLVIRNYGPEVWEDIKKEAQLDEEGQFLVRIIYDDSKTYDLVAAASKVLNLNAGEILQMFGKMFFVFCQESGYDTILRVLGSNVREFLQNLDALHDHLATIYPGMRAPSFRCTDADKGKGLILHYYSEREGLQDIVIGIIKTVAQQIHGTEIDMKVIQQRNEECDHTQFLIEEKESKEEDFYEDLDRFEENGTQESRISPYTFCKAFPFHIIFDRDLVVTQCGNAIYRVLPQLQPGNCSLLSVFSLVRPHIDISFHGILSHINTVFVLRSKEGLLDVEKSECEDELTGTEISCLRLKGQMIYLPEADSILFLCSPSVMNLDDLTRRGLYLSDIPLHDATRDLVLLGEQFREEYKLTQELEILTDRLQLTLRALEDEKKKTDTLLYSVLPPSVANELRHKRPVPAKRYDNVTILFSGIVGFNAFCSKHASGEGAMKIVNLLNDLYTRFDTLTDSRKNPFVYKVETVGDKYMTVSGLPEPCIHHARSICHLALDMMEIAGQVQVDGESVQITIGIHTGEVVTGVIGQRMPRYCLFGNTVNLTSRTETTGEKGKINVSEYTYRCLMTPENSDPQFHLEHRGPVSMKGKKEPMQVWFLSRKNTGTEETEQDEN
assay.explanation: Activation of soluble guanylate cyclase (cGMP enzyme immunoassay)
Type: biochemical
assay.context: sGC isolated from bovine lung; test substance 50 μM; 5% DMSO; 37° C., 15 to 20 minutes; [cGMP]test substance/[cGMP]control (basal enzyme activity)
measure: n-fold stimulation at c = 50 μM (fold)

A selection of reference data follows.
CCCN(CCC)c1nc(-c2ccc(Cl)cc2)nc2c1CCC2 : 7
Cc1ccc(-c2nc3c(c(NC4CCCCC4)n2)CCC3)cc1 : 10

a = OCCCCNc1nc(-c2cc(Cl)cc(Cl)c2)nc2c1CCC2
b = CCCCNc1nc(-c2cccc(Cl)c2)nc2c1CCC2
Problem: Select the item with the higher value of n-fold stimulation at c = 50 μM from the options a and b listed. // return label of chosen record
Result: a

Every entry's value here was drawn from patent US6627628B1.
